Origin of values: paper PMC6151525

Measured Minimum Inhibitory Concentration (MIC) B. subtilis ATCC 6051, listed per entry.
System: Bacillus subtilis ATCC 6051
Format: cell-based
Conditions: ATCC 6051, 24 h
Answer with a number only, understood to be in µg/mL.

{"compound": "CCCCCCCCCCN[C@H](Cc1ccccc1)C(=O)N[C@H](C(=O)N[C@@H](CO)C(=O)N[C@H](CCC(N)=O)C(=O)N[C@@H](C(=O)N[C@H](C(=O)N[C@@H](CO)C(=O)N[C@H]1C(=O)N[C@@H](C)C(=O)N[C@@H](CCCNC(=N)N)C(=O)N[C@@H]([C@@H](C)CC)C(=O)O[C@H]1C)[C@@H](C)CC)[C@@H](C)CC)[C@@H](C)CC [compound 5, N-De-D-Phe-Arg10-teixobactin]", "observed": 128}
{"compound": "CC[C@H](C)[C@H](NC(=O)[C@@H](Cc1ccccc1)N(C)C)C(=O)N[C@@H](CO)C(=O)N[C@H](CCC(N)=O)C(=O)N[C@@H](C(=O)N[C@H](C(=O)N[C@@H](CO)C(=O)N[C@H]1C(=O)N[C@@H](C)C(=O)N[C@@H](CCCNC(=N)N)C(=O)N[C@@H]([C@@H](C)CC)C(=O)O[C@H]1C)[C@@H](C)CC)[C@@H](C)CC [compound 3, N-Me2-D-Phe-Arg10-teixobactin]", "observed": 2}

Below: the item to evaluate.
Find Minimum Inhibitory Concentration (MIC) B. subtilis ATCC 6051 (Bacillus subtilis ATCC 6051) for the entry CC[C@H](C)[C@H](NC(=O)[C@@H](Cc1ccccc1)N=C(N(C)C)N(C)C)C(=O)N[C@@H](CO)C(=O)N[C@H](CCC(N)=O)C(=O)N[C@@H](C(=O)N[C@H](C(=O)N[C@@H](CO)C(=O)N[C@H]1C(=O)N[C@@H](C)C(=O)N[C@@H](CCCNC(=N)N)C(=O)N[C@@H]([C@@H](C)CC)C(=O)O[C@H]1C)[C@@H](C)CC)[C@@H](C)CC [compound 10, N-Tmg-D-Phe-Arg10-teixobactin] 64
